Numbers sourced from paper PMC8119466.

# TESTED_TARGET: recombinant PRL-3 (Homo sapiens, UniProt O75365)
# Construct: 6xHis (N, cleaved yes); made in house; host or cells: E. coli One Shot BL21 Star
# Sequence (O75365 whole entry): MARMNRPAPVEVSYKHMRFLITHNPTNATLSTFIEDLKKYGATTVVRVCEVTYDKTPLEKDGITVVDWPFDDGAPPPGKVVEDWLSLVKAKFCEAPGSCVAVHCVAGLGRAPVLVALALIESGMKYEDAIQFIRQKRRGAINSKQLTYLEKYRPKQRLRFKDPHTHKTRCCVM
# PROCEDURE_DETAILS: In vitro phosphatase assay (DiFMUP hydrolysis), PRL-3
# Format: biochemical
# STUDY_CONDITIONS: FDA-approved drug screen; compared to DMSO
Structures can show the parent of a compound that is named as a salt.
Criterion: % Phosphatase Activity (compared to DMSO) PRL-3 meeting or surpassing 90%. Met: Met. Not met: Not met.

| COMPOUND | TESTED_TARGET | CATEGORY_LABEL |
| --- | --- | --- |
| NC(=O)C[S@@+]([O-])C(c1ccccc1)c1ccccc1 [Armodafinil] | recombinant PRL-3 (Homo sapiens, UniProt O75365) | Not met |
| CC1Cc2ccccc2N1NC(=O)c1ccc(Cl)c(S(N)(=O)=O)c1 (centres unmarked) [Indapamide] | recombinant PRL-3 (Homo sapiens, UniProt O75365) | Met |
| N#C[C@@H]1C[C@@H]2C[C@@H]2N1C(=O)[C@@H](N)C12CC3CC(CC(O)(C3)C1)C2 [Saxagliptin hydrate] | recombinant PRL-3 (Homo sapiens, UniProt O75365) | Not met |
| CC(COc1ccccc1)N(CCCl)Cc1ccccc1 (centres unmarked) [Phenoxybenzamine HCl] | recombinant PRL-3 (Homo sapiens, UniProt O75365) | Not met |
| O=C(NC[C@H](O)CO)c1ccncc1Nc1ccc(I)cc1F [Pimasertib (AS-703026)] | recombinant PRL-3 (Homo sapiens, UniProt O75365) | Not met |
| O=C(N/N=C/c1ccc([N+](=O)[O-])o1)c1ccc(O)cc1 [Nifuroxazide] | recombinant PRL-3 (Homo sapiens, UniProt O75365) | Not met |
| Cc1ccc(S(=O)(=O)NC(=O)NN2CC3CCCC3C2)cc1 (centres unmarked) [Gliclazide] | recombinant PRL-3 (Homo sapiens, UniProt O75365) | Met |
| CC(O)(CS(=O)(=O)c1ccc(F)cc1)C(=O)Nc1ccc(C#N)c(C(F)(F)F)c1 (centres unmarked) [Bicalutamide] | recombinant PRL-3 (Homo sapiens, UniProt O75365) | Met |
| O=C(O)c1cc(-c2ccc(F)cc2F)ccc1O [Diflunisal] | recombinant PRL-3 (Homo sapiens, UniProt O75365) | Not met |
| CC#C[C@]1(O)CC[C@H]2[C@@H]3CCC4=CC(=O)CCC4=C3[C@@H](c3ccc(N(C)C)cc3)C[C@@]21C [Mifepristone] | recombinant PRL-3 (Homo sapiens, UniProt O75365) | Met |
| CN(C)[C@@H]1C(O)=C(C(N)=O)C(=O)[C@@]2(O)C(O)=C3C(=O)c4c(O)ccc(Cl)c4[C@@H](O)[C@H]3C[C@@H]12 [Demeclocycline HCl] | recombinant PRL-3 (Homo sapiens, UniProt O75365) | Not met |
| CC(C)(C)c1nc(-c2cccc(NS(=O)(=O)c3c(F)cccc3F)c2F)c(-c2ccnc(N)n2)s1 [Dabrafenib (GSK2118436)] | recombinant PRL-3 (Homo sapiens, UniProt O75365) | Not met |
| CN(C)Cc1c(C(=O)NCCOc2ccc(C(=O)NO)cc2)oc2ccccc12 [PCI-24781 (Abexinostat)] | recombinant PRL-3 (Homo sapiens, UniProt O75365) | Not met |
| Oc1c(Cl)cc(Cl)c2cccnc12 [Chloroxine] | recombinant PRL-3 (Homo sapiens, UniProt O75365) | Not met |
| COCCOC(=O)C1=C(C)NC(C)=C(C(=O)OC/C=C/c2ccccc2)C1c1cccc([N+](=O)[O-])c1 (centres unmarked) [Cilnidipine] | recombinant PRL-3 (Homo sapiens, UniProt O75365) | Not met |
| CCCN1CCCC[C@H]1C(=O)Nc1c(C)cccc1C [Ropivacaine HCl] | recombinant PRL-3 (Homo sapiens, UniProt O75365) | Not met |

----------
# TESTED_TARGET: recombinant PRL-2 (Homo sapiens)
# Construct: 6xHis (N, cleaved yes); made in house; host or cells: E. coli One Shot BL21 Star
# Sequence (Q12974 whole entry): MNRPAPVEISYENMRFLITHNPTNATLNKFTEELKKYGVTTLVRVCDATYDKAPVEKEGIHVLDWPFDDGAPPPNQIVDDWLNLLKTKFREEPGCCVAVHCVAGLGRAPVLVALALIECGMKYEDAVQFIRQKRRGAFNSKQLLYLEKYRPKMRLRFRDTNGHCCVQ
# PROCEDURE_DETAILS: In vitro phosphatase assay (DiFMUP hydrolysis), PRL-2;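 also: PRL-2 activity read as DiFMUP hydrolysis after 20 min at room temperature with drug, enzyme first pre-reduced at 4 °C for 20 min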
# Type: biochemical
# STUDY_CONDITIONS: FDA-approved drug screen; compared to DMSO
Counter-ions that a name gives are not always drawn.
Below, each entry is listed alongside its reported % Phosphatase Activity (compared to DMSO) PRL-2.
MEASUREMENT_TYPE: % Phosphatase Activity (compared to DMSO) PRL-2 (%)

| COMPOUND | UNIT_TEXT | OBSERVED_VALUE |
| --- | --- | --- |
| N#CC1(c2ccc(NC(=O)c3cccnc3NCc3ccncc3)cc2)CCCC1 [Apatinib] | % | 106 |
| O=C(O)c1cc(=O)c2ccccc2o1 [Chromocarb] | % | 102 |
| NC(=O)N1CCC(CC(=O)N2CCC([C@H]3c4ncc(Br)cc4CCc4cc(Cl)cc(Br)c43)CC2)CC1 [Lonafarnib] | % | 103 |
| CCc1c(Cl)c(O)c(Cl)c(O)c1C(=O)O[C@H]1[C@H](O)[C@H](OC)[C@H](OC/C2=C\C=C\C[C@H](O)/C(C)=C/[C@H](CC)[C@@H](O[C@@H]3OC(C)(C)[C@@H](OC(=O)C(C)C)[C@H](O)[C@@H]3O)/C(C)=C/C(C)=C/C[C@@H]([C@@H](C)O)OC2=O)O[C@@H]1C [Fidaxomicin] | % | 63 |
| CC(C)OC(=O)C(C)(C)Oc1ccc(C(=O)c2ccc(Cl)cc2)cc1 [Fenofibrate] | % | 89 |
| CC(=O)OCC(=O)[C@H]1CC[C@H]2[C@@H]3CCC4=CC(=O)CC[C@]4(C)[C@H]3CC[C@]12C [Deoxycorticosterone acetate] | % | 83 |
| COc1ccnc(C[S+]([O-])c2nc3ccc(OC(F)F)cc3[nH]2)c1OC (stereo not shown) [Pantoprazole sodium] | % | 98 |
| O=[N+]([O-])c1ccc(O)c2ncccc12 [Nitroxoline] | % | 48 |
| O=c1[nH]c2ccccc2n1C1CCN(CCCC(c2ccc(F)cc2)c2ccc(F)cc2)CC1 [Pimozide] | % | 106 |
| CC(=O)O[C@@]12CO[C@@H]1C[C@H](O)[C@@]1(C)C(=O)[C@H](O)C3=C(C)[C@@H](OC(=O)[C@H](O)[C@@H](NC(=O)OC(C)(C)C)c4ccccc4)C[C@@](O)([C@@H](OC(=O)c4ccccc4)[C@H]21)C3(C)C [Docetaxel Trihydrate] | % | 87 |
| CC1(C)OC(=O)NC1=O [5,5-Dimethyloxazolidine-2,4-dione] | % | 94 |
| Nc1ccn([C@@H]2O[C@H](CO)[C@@H](O)C2(F)F)c(=O)n1 [Gemcitabine] | % | 100 |
| CCN(C)C(=O)Oc1cccc([C@H](C)N(C)C)c1 [Rivastigmine] | % | 94 |
| Nc1nc(=O)c2nc(CNc3ccc(C(=O)N[C@@H](CCC(=O)O)C(=O)O)cc3)cnc2[nH]1 [Folic acid] | % | 112 |
| Oc1c(Br)cc(Br)c2cccnc12 [Broxyquinoline] | % | 101 |
| COC(=O)N[C@H](C(=O)N[C@@H](Cc1ccccc1)[C@@H](O)CN(Cc1ccc(-c2ccccn2)cc1)NC(=O)[C@@H](NC(=O)OC)C(C)(C)C)C(C)(C)C.O=S(=O)(O)O [Atazanavir Sulfate] | % | 83 |
| CN(C)/N=N/c1[nH]cnc1C(N)=O [Dacarbazine] | % | 98 |
| CO[C@H]1C[C@@H]2CC[C@@H](C)[C@@](O)(O2)C(=O)C(=O)N2CCCC[C@H]2C(=O)O[C@H]([C@H](C)C[C@@H]2CC[C@@H](O)[C@H](OC)C2)CC(=O)[C@H](C)/C=C(\C)[C@@H](O)[C@@H](OC)C(=O)[C@H](C)C[C@H](C)/C=C/C=C/C=C/1C [Rapamycin (Sirolimus)] | % | 89 |
| COc1ccc(C[C@@H]2c3cc(OC)c(OC)cc3CC[N@+]2(C)CCC(=O)OCCCCCOC(=O)CC[N@@+]2(C)CCc3cc(OC)c(OC)cc3[C@H]2Cc2ccc(OC)c(OC)c2)cc1OC [Cisatracurium Besylate] | % | 103 |
| Nc1ccn([C@@H]2CS[C@H](CO)O2)c(=O)n1 [Lamivudine] | % | 113 |
| CC(C)C[C@H](NC(=O)[C@@H](NC(=O)c1cccc(-c2ccccc2)n1)[C@@H](C)O)B(O)O [CEP-18770 (Delanzomib)] | % | 98 |
| CCN(CC)C(=O)C1(c2ccccc2)CC1CN.Cl (stereo not shown) [Milnacipran HCl] | % | 107 |
| CCCC(=O)OCOC(=O)C1=C(C)NC(C)=C(C(=O)OC)C1c1cccc(Cl)c1Cl (stereo not shown) [Clevidipine Butyrate] | % | 437 |
| CN1CCC(=C2c3ccccc3CCn3c(C=O)cnc32)CC1 [Alcaftadine] | % | 89 |
| CCCN(CCC)S(=O)(=O)c1ccc(C(=O)O)cc1 [Probenecid] | % | 114 |
| CCCCCCCCCCC[C@@H](C[C@@H]1OC(=O)[C@H]1CCCCCC)OC(=O)[C@H](CC(C)C)NC=O [Orlistat] | % | 91 |
| CC(CCc1ccccc1)NCC(O)c1ccc(O)c(C(N)=O)c1 (stereo not shown) [Labetalol HCl] | % | 154 |
| CC(C)c1cc(-c2n[nH]c(=O)n2-c2ccc3c(ccn3C)c2)c(O)cc1O [Ganetespib (STA-9090)] | % | 97 |
